experiment: Cytotoxicity against human THP-1 cells assessed as reduction in cell viability at higher concentrations incubated for 48 hrs by MTT assay; type: toxicity, cell-based; settings: read-out: INH
Peptide text beside a SMILES is read from it.
OBSERVED_PROPERTY: cytotoxicity at 48 h

Fill in reported cytotoxicity at 48 h for this entry: CC(C)C[C@H](NC(=O)[C@H](Cc1c[nH]c2ccccc12)NC(=O)[C@H](Cc1ccc(O)cc1)NC(=O)[C@H](Cc1ccccc1)NC(=O)CNC(=O)[C@@H](N)CS)C(=O)N[C@@H](CCCNC(=N)N)C(=O)N[C@@H](CO)C(=O)N[C@@H](CS)C(=O)O (H-CGFYWLRSC-OH) ~50%

* * *

assay: Stability of the compound in fetal bovine serum assessed as parent compound remaining measured after 36 hrs by HPLC-MS analysis; type: ADME, cell-free, Bos taurus; settings: cattle, read-out: Stability
Peptide text beside a SMILES is read from it.
Can you tell me remaining at 36 h for the items I'm about to list?

{"COMPOUND": "CC(C)C[C@@H]1NC(=O)[C@H](Cc2c[nH]c3ccccc23)NC(=O)[C@H](Cc2ccc(O)cc2)NC(=O)[C@H](Cc2ccccc2)NC(=O)[C@H](CCCNC(=N)N)NC(=O)[C@H](CCCCN)NC(=O)[C@H](CCC(=O)O)NC(=O)[C@H](CO)NC(=O)[C@H](CCCNC(=N)N)NC1=O (cyclo(EKRFYWLRS))", "remaining at 36 h": "75%"}

For each of the compounds below, state remaining at 36 h.
1. CC(C)C[C@H](NC(=O)[C@H](Cc1csc2ccccc12)NC(=O)[C@@H](Cc1ccccc1)NC(=O)[C@H](Cc1ccccc1)NC(=O)CNC(=O)[C@@H](N)CS)C(=O)N[C@@H](CCCNC(=N)N)C(=O)N[C@@H](CO)C(=O)N[C@@H](CS)C(=O)O
2. CC(C)C[C@H](NC(=O)[C@H](Cc1c[nH]c2ccccc12)NC(=O)[C@H](Cc1ccc(O)cc1)NC(=O)[C@H](Cc1ccccc1)NC(=O)CNC(=O)[C@@H](N)CS)C(=O)N[C@@H](CCCNC(=N)N)C(=O)N[C@@H](CO)C(=O)N[C@@H](CS)C(=O)O (H-CGFYWLRSC-OH)

["55%", "35%"]

* * *

experiment: Drug uptake in human KU812 cells assessed as membrane penetration by measuring increase in fluorescence intensity at 5 umol/L incubated for 2 hrs by flow cytometry relative to C9C; format: ADME, cell-based; settings: ku812, 2 h, 5 µM, dose 5 µmol/L
Square brackets hold non-standard residues; d marks the D form. Peptide text beside a SMILES is read from it. Bta = N[C@@H](Cc1csc2ccccc12)C(=O)O
OBSERVED_PROPERTY: fold change (FC)
One number for each entry.

For orientation, consider the following solved cases.
{"COMPOUND": "CC(C)C[C@@H]1NC(=O)[C@H](Cc2c[nH]c3ccccc23)NC(=O)[C@H](Cc2ccc(O)cc2)NC(=O)[C@H](Cc2ccccc2)NC(=O)[C@H](CCCNC(=N)N)NC(=O)[C@H](CCCCN)NC(=O)[C@H](CCC(=O)O)NC(=O)[C@H](CO)NC(=O)[C@H](CCCNC(=N)N)NC1=O (cyclo(EKRFYWLRS))", "fold change (FC)": 7.99}
{"COMPOUND": "CC(C)C[C@@H]1NC(=O)[C@H](Cc2csc3ccccc23)NC(=O)[C@H](Cc2ccc(O)cc2)NC(=O)[C@H](Cc2ccccc2)NC(=O)[C@H](CCCNC(=N)N)NC(=O)[C@H](CCCCN)NC(=O)[C@H](CCC(=O)O)NC(=O)[C@H](CO)NC(=O)[C@H](CCCNC(=N)N)NC1=O (cyclo([Bta]LRSEKRFY))", "fold change (FC)": 2.69}

Hi, could you look up fold change (FC) for each item in my list?
1. CC(C)C[C@@H]1NC(=O)[C@H](Cc2c[nH]c3ccccc23)NC(=O)[C@H](Cc2ccccc2)NC(=O)[C@H](Cc2ccccc2)NC(=O)[C@H](CCCNC(=N)N)NC(=O)[C@H](CCCCN)NC(=O)[C@H](CCC(=O)O)NC(=O)[C@H](CO)NC(=O)[C@H](CCCNC(=N)N)NC1=O (cyclo(EKRFFWLRS))
2. CC(C)C[C@H](NC(=O)[C@H](Cc1csc2ccccc12)NC(=O)[C@@H](Cc1ccccc1)NC(=O)[C@H](Cc1ccccc1)NC(=O)CNC(=O)[C@@H](N)CS)C(=O)N[C@@H](CCCNC(=N)N)C(=O)N[C@@H](CO)C(=O)N[C@@H](CS)C(=O)O

[5.65, 4.45]

* * *

test: Cytotoxicity against human CCRF-CEM cells assessed as cell viability at 0.01 to 100 uM incubated for 48 hrs by MTT assay; assay type: toxicity, cell-based; conditions: dose 0.01-100 µM, read-out: Activity
Peptide text beside a SMILES is read from it.
OBSERVED_PROPERTY: viability at 48 h, up to 100 µM

{"COMPOUND": "CC(C)C[C@@H]1NC(=O)[C@H](Cc2c[nH]c3ccccc23)NC(=O)[C@H](Cc2ccc(O)cc2)NC(=O)[C@H](Cc2ccccc2)NC(=O)[C@H](CCCNC(=N)N)NC(=O)[C@H](CCCCN)NC(=O)[C@H](CCC(=O)O)NC(=O)[C@H](CO)NC(=O)[C@H](CCCNC(=N)N)NC1=O (cyclo(EKRFYWLRS))", "viability at 48 h, up to 100 µM": "> 75%"}
{"COMPOUND": "CC(C)C[C@H](NC(=O)[C@H](Cc1c[nH]c2ccccc12)NC(=O)[C@H](Cc1ccc(O)cc1)NC(=O)[C@H](Cc1ccccc1)NC(=O)CNC(=O)[C@@H](N)CS)C(=O)N[C@@H](CCCNC(=N)N)C(=O)N[C@@H](CO)C(=O)N[C@@H](CS)C(=O)O (H-CGFYWLRSC-OH)", "viability at 48 h, up to 100 µM": "> 75%"}

# evaluate next
Note viability at 48 h, up to 100 µM for the compound shown: CC(C)C[C@H](NC(=O)[C@H](Cc1csc2ccccc12)NC(=O)[C@@H](Cc1ccccc1)NC(=O)[C@H](Cc1ccccc1)NC(=O)CNC(=O)[C@@H](N)CS)C(=O)N[C@@H](CCCNC(=N)N)C(=O)N[C@@H](CO)C(=O)N[C@@H](CS)C(=O)O > 75%

* * *

Would you mind telling me the reported viability at 48 h, up to 100 µM of each entry?
experiment: Cytotoxicity against human K562 cells assessed as cell viability at 0.01 to 100 uM incubated for 48 hrs by MTT assay; type: toxicity, cell-based; details: dose 0.01-100 µM, read-out: Activity
Peptide text beside a SMILES is read from it.

{"COMPOUND": "CC(C)C[C@@H]1NC(=O)[C@H](Cc2c[nH]c3ccccc23)NC(=O)[C@H](Cc2ccc(O)cc2)NC(=O)[C@H](Cc2ccccc2)NC(=O)[C@H](CCCNC(=N)N)NC(=O)[C@H](CCCCN)NC(=O)[C@H](CCC(=O)O)NC(=O)[C@H](CO)NC(=O)[C@H](CCCNC(=N)N)NC1=O (cyclo(EKRFYWLRS))", "viability at 48 h, up to 100 µM": "> 75%"}
{"COMPOUND": "CC(C)C[C@H](NC(=O)[C@H](Cc1csc2ccccc12)NC(=O)[C@@H](Cc1ccccc1)NC(=O)[C@H](Cc1ccccc1)NC(=O)CNC(=O)[C@@H](N)CS)C(=O)N[C@@H](CCCNC(=N)N)C(=O)N[C@@H](CO)C(=O)N[C@@H](CS)C(=O)O", "viability at 48 h, up to 100 µM": "> 75%"}

Shift focus to the following entry.
In one line, give reported viability at 48 h, up to 100 µM of the entry CC(C)C[C@H](NC(=O)[C@H](Cc1c[nH]c2ccccc12)NC(=O)[C@H](Cc1ccc(O)cc1)NC(=O)[C@H](Cc1ccccc1)NC(=O)CNC(=O)[C@@H](N)CS)C(=O)N[C@@H](CCCNC(=N)N)C(=O)N[C@@H](CO)C(=O)N[C@@H](CS)C(=O)O (H-CGFYWLRSC-OH) . > 75%
